Attribution: paper PMC6152084

Protein target, amino acids: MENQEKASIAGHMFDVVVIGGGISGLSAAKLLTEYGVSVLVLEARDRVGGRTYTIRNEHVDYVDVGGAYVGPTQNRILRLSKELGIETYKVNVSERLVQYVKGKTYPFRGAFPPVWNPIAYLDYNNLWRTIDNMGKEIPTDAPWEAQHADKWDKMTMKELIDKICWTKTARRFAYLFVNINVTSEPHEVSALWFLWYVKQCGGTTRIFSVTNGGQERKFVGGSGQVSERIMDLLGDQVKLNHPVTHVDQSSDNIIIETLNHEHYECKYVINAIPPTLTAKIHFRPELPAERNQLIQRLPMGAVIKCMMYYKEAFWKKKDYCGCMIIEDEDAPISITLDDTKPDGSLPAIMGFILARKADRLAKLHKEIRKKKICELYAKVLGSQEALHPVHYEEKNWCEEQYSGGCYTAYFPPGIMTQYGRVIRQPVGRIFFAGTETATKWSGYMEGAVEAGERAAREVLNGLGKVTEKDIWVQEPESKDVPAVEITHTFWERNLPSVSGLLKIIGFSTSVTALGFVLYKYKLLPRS
Property: pKi
Reminder that pKi means the negative base-10 logarithm of the concentration expressed in mol/L.

query: Record request: pKi value, item CC1CCCCN1c1ccc(/C=N/Nc2ccccc2)cc1 (stereo not shown) [Compound 2a]
result: 6.73

###

target: hMAO-A (Homo sapiens); construct: purchased Sigma-Aldrich (Steinheim, Germany); test: MAO-A inhibition assay (in vitro fluorometric Amplex Red method); format: biochemical; details: 10^−3 M
Property: inhibition at 1000 µM
# include the unit after the value

Solved cases below.
Compound	Recorded Measurement
COc1ccc(Oc2ccc(C=NNc3ccccc3)cc2)cc1	32.5%
C(=NNc1ccccc1)c1ccc(N2CCN(c3ccccc3)CC2)cc1	70.9%
C(=NNc1ccccc1)c1ccc(-n2ccnc2)cc1	40.9%
COc1ccc(Sc2ccc(C=NNc3ccccc3)cc2)cc1	30.5%
Fc1ccc(Sc2ccc(C=NNc3ccccc3)cc2)cc1	28.6%
CC1CCCCN1c1ccc(/C=N/Nc2ccccc2)cc1 (centres unmarked)	88.2%
C(=NNc1ccccc1)c1ccc(-n2cncn2)cc1	38.6%
CN1CCN(c2ccc(C=NNc3ccccc3)cc2)CC1	93.5%

query: Recorded inhibition at 1000 µM of `COc1ccc(N2CCN(c3ccc(C=NNc4ccccc4)cc3)CC2)cc1` , please.
result: 68.6%

query: // returns reported inhibition at 1000 µM for input `Clc1ccc(Sc2ccc(C=NNc3ccccc3)cc2)cc1`
result: 29.2%

query: Consider the compound shown here: `Fc1ccc(Oc2ccc(C=NNc3ccccc3)cc2)cc1` What is its recorded inhibition at 1000 µM?
result: 54.5%

###

Biological target: hMAO-A (Homo sapiens, UniProt P21397)
Construct: purchased Sigma-Aldrich (Steinheim, Germany)
Sequence (P21397 1-527): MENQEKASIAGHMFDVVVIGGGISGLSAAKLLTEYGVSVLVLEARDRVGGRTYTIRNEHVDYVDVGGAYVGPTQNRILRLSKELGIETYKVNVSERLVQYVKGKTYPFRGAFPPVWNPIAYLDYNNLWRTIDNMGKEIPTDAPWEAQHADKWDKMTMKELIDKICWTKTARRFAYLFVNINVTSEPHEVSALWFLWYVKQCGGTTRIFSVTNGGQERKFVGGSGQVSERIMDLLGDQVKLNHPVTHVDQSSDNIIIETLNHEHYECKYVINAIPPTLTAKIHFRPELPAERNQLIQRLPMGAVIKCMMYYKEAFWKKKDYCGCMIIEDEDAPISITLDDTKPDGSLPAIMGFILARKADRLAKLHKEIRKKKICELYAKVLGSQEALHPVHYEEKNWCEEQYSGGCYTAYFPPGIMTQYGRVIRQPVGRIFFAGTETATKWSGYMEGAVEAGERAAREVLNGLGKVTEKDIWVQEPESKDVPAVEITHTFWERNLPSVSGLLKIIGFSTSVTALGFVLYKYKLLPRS
Assay: MAO-A inhibition assay (in vitro fluorometric Amplex Red method)
Assay type: biochemical
Quick reference for IC50 among some compounds

Compound	Recorded Measurement
CN1CCN(c2ccc(C=NNc3ccccc3)cc2)CC1	28 nM

Next, consider the following compound.
query: Given CC1CCCCN1c1ccc(/C=N/Nc2ccccc2)cc1 (centres unmarked) , state its recorded IC50.
result: 342 nM
